Target: EP2 (Homo sapiens, UniProt P43116)
Sequence (P43116 whole entry): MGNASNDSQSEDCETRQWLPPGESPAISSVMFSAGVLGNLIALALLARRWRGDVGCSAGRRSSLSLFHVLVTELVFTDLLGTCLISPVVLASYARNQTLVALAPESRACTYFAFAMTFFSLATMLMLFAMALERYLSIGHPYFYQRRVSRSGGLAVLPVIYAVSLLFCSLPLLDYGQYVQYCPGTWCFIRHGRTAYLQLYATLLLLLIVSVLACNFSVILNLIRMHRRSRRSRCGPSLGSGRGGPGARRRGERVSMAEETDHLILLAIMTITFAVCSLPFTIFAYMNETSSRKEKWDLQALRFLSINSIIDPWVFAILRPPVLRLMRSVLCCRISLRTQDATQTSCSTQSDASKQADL
endpoint.name: Ki

Request: Consider the compound CCCCCC(O)c1ccc(N(CCCc2ccc(C(=O)O)s2)C(C)=O)cc1 (stereo not shown) and give its measured Ki.
Response: > 10 µM
